B1: r11_951_TrROS_Hall (parent)
chain: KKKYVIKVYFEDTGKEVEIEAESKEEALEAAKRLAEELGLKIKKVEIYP

- Variants of: B1
- experiment-summary: folding stability dG (cDNA display proteolysis); higher = more stable
- condition-description: PBS, room temperature
quantity-measured: folding stability dG (kcal/mol)
Only the number, expressed in kcal/mol, is required.

Some solved entries appear below for comparison.
K43G ... 4.25
L34F ... 4.52
K32C ... 4.22
K41R ... 4.62
K2Q ... 4.34
A35W ... 4.13
A27V ... 4.38
K7C ... 3.91
A27D ... 1.49
E29M ... 4.77

Read the entry T13W and write its reported folding stability dG.
4.28

Read the entry T13Q and write its reported folding stability dG.
4.32

Read the entry I42P and write its reported folding stability dG.
3.23

Read the entry K41F and write its reported folding stability dG.
4.44
